Measured melting point by item

molecule="CCOCCOc1cc(C)c(-c2cccc(CNc3ccc(OCC(=O)O)cc3)c2)c(C)c1 [Compound I-37]" observed="133 to 136 °C"
molecule="O=C(O)COc1ccc(NCc2cccc(-c3ccccc3OC(F)(F)F)c2)cc1 [Compound I-32]" observed="107 to 110 °C"

API: the following record is the query input.
Please supply the value of reported melting point for the item Cc1cc(OC(C)C)ccc1-c1cccc(CNc2ccc(OCC(=O)O)c(F)c2)c1 [Compound I-22]
134 to 137 °C
